System: UO-31 renal
experiment-notes: NCI-60 one-dose screen, 48 h (100 = growth as untreated, 0 = no growth, -100 = all killed)
condition-label: 10 µM unless noted
Compounds without any hit were thinned out: in the full panel of roughly 83,000, 20% have a hit.
metric-name: growth (%)
State the answer as a number, implicitly in %.

As a guide, the following entries are already answered.
# compound, reported-measurement
measured = [
    ("COc1ccc(C(=O)c2c(N)nc3n2CCCC3)cc1OC", 84.3),
    ("CCC(C)C1NC(=O)c2nc(oc2-c2ccccc2)-c2csc(n2)-c2csc(n2)-c2nc(oc2C)-c2coc(n2)CNC(=O)C(C(C)CC)NC1=O (stereo not given)", -90.1),
    ("O=C(NCCNC(=O)c1cc(S(=O)(=O)NCCc2ccccc2)c(O)c(O)c1O)c1cc(S(=O)(=O)NCCc2ccccc2)c(O)c(O)c1O", 46.5),
    ("COc1ccc2c(c1)CCCC21C(=O)Nc2c(Cl)cccc21 (stereo not given)", 82.8),
]

API: the following record is the query input.
Lookup result for `O=C(NO)c1ccc(NCc2csc3ccccc23)cc1` ; measured growth: 39.5

---

Tested on: BT-549 breast
experiment-notes: NCI-60 one-dose screen, 48 h
condition-label: 10 µM unless noted
About 83,000 compounds went through this panel and 20% of them were active in at least one assay; those are over-represented in the sample as a whole. Calls of active or inactive are those of the source. The calls were made as follows: active = growth percent below 10; inactive = the rest.
Your response should consist of one outcome taken from active, inactive

Look over these answered cases.
# molecule, label-class
data = [
    ("CCCCCCCCNC(C)C(O)c1ccc(SC(C)C)cc1 (stereo unspecified)", "inactive"),
    ("Cc1cc(C)c2c(n1)sc1c(Nc3ccc(Cl)cc3Cl)ncnc12", "inactive"),
    ("CCCCNCC(O)c1cc(-c2ccc(C(F)(F)F)cc2)nc(-c2ccc(C(F)(F)F)cc2)c1 (stereo unspecified)", "active"),
    ("CCc1ccc2c(c1)N(CCO)C1=C(C(=O)OC1)C2c1cccc(Br)c1 (stereo unspecified)", "inactive"),
]

## Input For this molecule, state the assay outcome: `COc1ccc(Br)c2ccccc12`
## Output inactive

## Input For this molecule, state the assay outcome: `COc1cccc(/C=N/N=C(N)N)c1`
## Output inactive

---

Test system: UACC-62 melanoma
experiment-notes: NCI-60 one-dose screen, 48 h (100 = growth as untreated, 0 = no growth, -100 = all killed)
condition-label: 10 µM unless noted
This is part of a sample that, as a whole, favours compounds with a hit. Of some 83,000 tested, about 20% had one in any assay.
metric-name: growth (%)
State the answer as a number, implicitly in %.

As a guide, the following entries are already answered.
# compound, scale-unit, reported-measurement
data = [
    ("C[C@@H](C[C@H](CC1CC1)c1ccccc1)c1ccc2ccccc2c1", "%", 103),
    ("CCCCN(CCCC)CCCN=c1nc2c(c(N)n1-c1ccccc1)c(=S)n(-c1ccccc1)c(=S)n2-c1ccccc1", "%", -99.4),
    ("COc1cccc(OCC(O)CN2CCN(c3ccccc3)CC2)c1 (centres undefined)", "%", 94.3),
]

GET /values?item= CC1(C)C2CCC(O)(C(=O)O)C1C2 (centres undefined) &system= UACC-62 melanoma returns growth: 91

GET /values?item= `COc1ccc(/C(=C\c2ccc3c(c2)OCO3)C(=O)Nc2nc3ccccc3s2)cc1` &system= UACC-62 melanoma returns growth: 102

GET /values?item= `Cc1nn(-c2ccc(Cl)cc2)c(=O)n1CCN1CCOCC1` &system= UACC-62 melanoma returns growth: 82.8

GET /values?item= C#CC[C@@H]1C[C@]2(C)[C@H]3CC[C@@H]4[C@H]5C(C(=C)C)CC[C@]5(C(=O)NCCCCN)CC[C@@]4(C)[C@]3(C)CC[C@H]2C(C)(C)[C@H]1OC(C)=O (some centres undefined) &system= UACC-62 melanoma returns growth: -36.1

GET /values?item= COc1ccc(/C=C2\CCCC3=C2N=C2SC(C)=NN2C3c2ccc(OC)c(OC)c2)cc1OC (centres undefined) &system= UACC-62 melanoma returns growth: 34.6

GET /values?item= Nc1ncnc2c1N=C(c1ccc(F)cc1)CC(c1sc(Cl)nc1Cl)N2 (centres undefined) &system= UACC-62 melanoma returns growth: 94.5
